The measurements presented in this section are drawn from ChEMBL document CHEMBL1961873.

Target: Serine/threonine-protein kinase MRCK alpha (Homo sapiens);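 also: each value is an averaged percent inhibition of MRCK alpha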
Details: at 1 µM
assayEndpoint: inhibition (%)
One number for each entry, in %.

Here's what some known entries look like.
NS(=O)(=O)c1ccc(Nc2cc(-c3cccc(O)c3)n[nH]2)cc1 :: 0.11
Cc1ccc2c(-c3ccnc(Nc4ccc5c(c4)OCCO5)n3)c(-c3ccc(C(F)(F)F)cc3)nn2n1 :: -1.13
COc1cccc(-n2ncc3c(N/N=C/c4ccc(S(C)(=O)=O)cc4)ncnc32)c1 :: -0.45
CS(=O)(=O)Nc1cccc(-c2ccc3c(NC(=O)C4CC4)n[nH]c3c2)c1 :: 2.47

Give me inhibition for each of these molecules, listed below.
1. Oc1cccc(-c2nc(-c3ccccc3)[nH]c2-c2ccncc2)c1
2. COc1cc2ncn(-c3cc(OCc4ccccc4S(C)(=O)=O)c(C#N)s3)c2cc1OC
3. O=C(Nc1ccc(Oc2ccc3[nH]c(NC(=O)c4ccco4)nc3c2)cc1)Nc1cc(C(F)(F)F)ccc1F
4. Nc1nccc(C#Cc2cncnc2Nc2ccc(OCc3cccc(F)c3)c(Cl)c2)n1

Reply:
2.63
5.41
-0.59
-0.95
